Values compiled from ChEMBL document CHEMBL1201862.

# AC50 measurements, system: Cytochrome P450 3A4 (Homo sapiens)
# Sequence (P08684 whole entry): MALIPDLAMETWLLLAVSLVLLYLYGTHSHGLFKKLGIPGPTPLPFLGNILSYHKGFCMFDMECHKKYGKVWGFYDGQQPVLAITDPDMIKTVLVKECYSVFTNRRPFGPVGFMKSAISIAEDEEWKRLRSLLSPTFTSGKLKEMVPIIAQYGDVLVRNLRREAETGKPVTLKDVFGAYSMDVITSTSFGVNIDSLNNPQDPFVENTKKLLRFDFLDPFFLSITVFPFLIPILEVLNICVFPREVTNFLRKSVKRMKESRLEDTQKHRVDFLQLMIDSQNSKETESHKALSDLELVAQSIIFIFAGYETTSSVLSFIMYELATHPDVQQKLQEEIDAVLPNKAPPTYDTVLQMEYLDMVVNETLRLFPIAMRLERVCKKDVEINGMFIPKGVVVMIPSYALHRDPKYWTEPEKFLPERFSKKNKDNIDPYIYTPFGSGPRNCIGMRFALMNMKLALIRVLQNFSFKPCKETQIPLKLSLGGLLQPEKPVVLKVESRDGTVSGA

Past entries and their recorded results:
In [3]: df
Out[3]:
                  compound_structure_string  measurement_label     reported_measurement
0  Cc1cc(C)cc(-n2nnc(C(=O)NCc3ccccc3Cl)c2N)c1               AC50   15.8 µM (inconclusive)
1      Cc1cnn(CCC(=O)NN=C(S)Nc2ccc(F)cc2)c1               AC50   17.8 µM (inconclusive)
2         Cc1ccc(NC(=O)CCSc2nnc3ccccn23)cc1               AC50  0.891 µM (inconclusive)
3  CO[C@@H]1COC(=O)C/C=C\[C@@H](C)COC(=O)[C@H](Cc2ccccc2)NC(=O)C/C=C\[C@H]1C               AC50   1.58 µM (inconclusive)

Moving on to another compound below.
Write down the reported AC50 of "CCNc1ncc2nc(-c3ccc(F)cc3)c(=O)n(-c3ccc(OC)cc3)c2n1" , test system: Cytochrome P450 3A4 (Homo sapiens).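 Also: CYP3A4 tested as one member of a cytochrome P450 panel screen.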
20 µM (inconclusive)

----------
# AC50 measurements, system: Cytochrome P450 2C9 (Homo sapiens, UniProt P11712)
# Sequence (P11712 whole entry): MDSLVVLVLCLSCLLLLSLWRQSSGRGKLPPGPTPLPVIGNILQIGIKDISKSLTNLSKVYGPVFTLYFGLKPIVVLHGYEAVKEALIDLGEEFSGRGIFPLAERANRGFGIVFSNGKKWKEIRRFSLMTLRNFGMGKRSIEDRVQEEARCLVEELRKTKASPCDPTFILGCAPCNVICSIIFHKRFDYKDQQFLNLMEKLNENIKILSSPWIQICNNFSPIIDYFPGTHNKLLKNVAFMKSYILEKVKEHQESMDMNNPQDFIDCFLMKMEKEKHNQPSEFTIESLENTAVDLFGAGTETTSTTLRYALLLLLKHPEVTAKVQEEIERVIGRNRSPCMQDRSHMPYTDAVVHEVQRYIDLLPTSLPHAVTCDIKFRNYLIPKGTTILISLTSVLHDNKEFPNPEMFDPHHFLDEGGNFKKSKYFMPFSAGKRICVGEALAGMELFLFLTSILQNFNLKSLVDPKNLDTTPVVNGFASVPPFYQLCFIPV
MEASUREMENT LABEL: AC50

>>> df
                  compound_structure_string  reported_measurement
0            O=C(c1cc(-c2ccco2)on1)N1CCOCC1          inconclusive
1  Cc1cc(C)cc(-n2nnc(C(=O)NCc3ccccc3Cl)c2N)c1          inconclusive
2            CCn1c(C)nc2c1C(=O)c1ccccc1C2=O          inconclusive
3  O=C(Nc1cccc2ccccc12)c1cn(-c2ccccc2)nc1-c1cccs1          inconclusive

----------
ASSAY SYSTEM: Nonstructural protein 1 (Influenza A virus, UniProt Q194T2)
Sequence (Q194T2 whole entry): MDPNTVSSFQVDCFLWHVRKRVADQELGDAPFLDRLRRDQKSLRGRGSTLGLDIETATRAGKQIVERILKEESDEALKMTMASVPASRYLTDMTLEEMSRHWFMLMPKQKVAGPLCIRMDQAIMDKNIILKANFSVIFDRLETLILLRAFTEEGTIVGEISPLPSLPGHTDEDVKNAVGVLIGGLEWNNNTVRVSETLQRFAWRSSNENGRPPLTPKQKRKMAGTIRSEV
Type: functional, Influenza A virus (A/California/07/2009(H1N1))
Active and inactive are the calls of the source.
MEASUREMENT LABEL: IC50

>>> print(df.to_string())
                  compound_structure_string  reported_measurement
0  CN1/C(=C\C=C2/SC(=S)NC2=O)C(C)(C)c2ccccc21      38.8 µM (active)
1          CC(=NNC(=S)Nc1ccc(C)cc1)c1ccccn1      16.6 µM (active)
2  CC(=O)OCCNc1cc(N2CCN(C)CC2)c2noc3c2c1C(=O)c1ccccc1-3      24.1 µM (active)
3           c1ccc(CSc2ccc(-c3ccccn3)nn2)nc1      4.94 µM (active)

Any idea what IC50 was measured for "COc1ccc(/C=N\NC(=O)c2cc(O)c(O)c(O)c2)cc1COc1ccc(C(=O)OCC(C)C)cc1" ?
78.6 µM (active)

Any idea what IC50 was measured for "Cc1cccc(N=C2c3cc([N+](=O)[O-])ccc3-c3c2cc([N+](=O)[O-])cc3[N+](=O)[O-])c1" ?
11.7 µM (active)

Any idea what IC50 was measured for "CCOc1ccc(N/N=C2\C(=O)Nn3c2nc2c(c3=O)CCCC2)cc1" ?
> 100 µM (active)

Any idea what IC50 was measured for "Cc1c(NC(=S)N/N=C/c2ccc([N+](=O)[O-])cc2O)c(=O)n(-c2ccccc2)n1C" ?
5.14 µM (active)

Any idea what IC50 was measured for "COc1cc(O)c(/C=N/NC(=O)c2ccncc2)c(OC)c1[N+](=O)[O-]" ?
8.82 µM (active)

Any idea what IC50 was measured for "O=C1NC(=O)N(Cc2ccco2)C(=O)/C1=C/NNC(=O)c1ccccc1O" ?
42.3 µM (active)

Any idea what IC50 was measured for "COc1ccc(NC(=O)c2cc([N+](=O)[O-])ccc2NC(=O)CNCc2ccccn2)c(OC)c1" ?
4.45 µM (active)
